- METHOD DESCRIPTION: Oral bioavailability in dog at 0.6 mg/kg
- Format: ADME, organism-based, Canis lupus familiaris
- TEST PARAMETERS: in vivo
MEASURED PARAMETER: bioavailability (%)
Hi! Could you send only the number? It should be in %, unit omitted.

Sample records with bioavailability:
CC[C@H](C)[C@@H]1C(=O)N[C@H](C2Cc3ccccc3C2)C(=O)N1[C@@H](C(=O)N(C)C)c1ccc(C)nc1C : 44
CC[C@H](C)[C@@H]1C(=O)N[C@H](C2Cc3ccccc3C2)C(=O)N1[C@@H](C(=O)N(C)C)c1cnc(C)cc1C : 17
COc1ccc([C@H](C(=O)N(C)C)N2C(=O)[C@@H](C3Cc4ccccc4C3)NC(=O)[C@H]2CC(C)C)cn1 : 13

**Query** Report bioavailability for CC[C@H](C)[C@@H]1C(=O)N[C@H](C2Cc3ccccc3C2)C(=O)N1[C@@H](C(=O)N1CCOCC1)c1ccc(C)nc1C [EPELSIBAN]
**Result** 13

**Query** Report bioavailability for CC[C@@H](C)[C@@H]1C(=O)N[C@H](C2Cc3ccccc3C2)C(=O)N1[C@@H](C(=O)N1CCOCC1)c1ccc(C)nc1
**Result** 31

**Query** Report bioavailability for CC[C@H](C)[C@@H]1C(=O)N[C@H](C2Cc3ccccc3C2)C(=O)N1[C@@H](C(=O)N1CCOCC1)c1ccc(C)nc1
**Result** 14

**Query** Report bioavailability for CC[C@H](C)[C@@H]1C(=O)N[C@H](C2Cc3ccccc3C2)C(=O)N1[C@@H](C(=O)N(C)C)c1ccc(C)[n+]([O-])c1
**Result** 11

====

- METHOD DESCRIPTION: Clearance in rat at 5 mg/kg
- Type: ADME, organism-based
- Set-up: dose 5 mg/kg
- TEST PARAMETERS: in vivo
Parameter clearance: see the listing below.

**Query** Report clearance for CC[C@H](C)[C@@H]1C(=O)N[C@H](C2Cc3ccccc3C2)C(=O)N1[C@@H](C(=O)N1CCOCC1)c1ccc(C)nc1C
**Result** 13 mL/min/kg

====

Parameter AUC: see the listing below.
- METHOD DESCRIPTION: AUC in rat at 5 mg/kg, po
- Type: ADME, organism-based
- Set-up: dose 5 mg/kg, route oral
- TEST PARAMETERS: plasma
Hi! Could you send only the number? It should be in ng·h/mL, unit omitted.

Sample records with AUC:
Cc1ccc([C@H](C(=O)N(C)C)N2C(=O)[C@@H](C3Cc4ccccc4C3)NC(=O)[C@H]2CC(C)C)cn1 : 2680
CC[C@H](C)[C@@H]1C(=O)N[C@H](C2Cc3ccccc3C2)C(=O)N1[C@@H](C(=O)N1CCOCC1)c1cnc(C)cc1C : 1110
CC[C@H](C)[C@@H]1C(=O)N[C@H](C2Cc3ccccc3C2)C(=O)N1[C@@H](C(=O)N(C)C)c1ccc(C)[n+]([O-])c1 : 24
CC[C@H](C)[C@@H]1C(=O)N[C@H](C2Cc3ccccc3C2)C(=O)N1[C@@H](C(=O)N(C)C)c1cc(C)cnc1C : 1370
Cc1ccc([C@H](C(=O)N(C)C)N2C(=O)[C@@H](C3Cc4ccccc4C3)NC(=O)[C@H]2CC(C)(C)C)cn1 : 618
COc1ccc([C@H](C(=O)N2CCOCC2)N2C(=O)[C@@H](C3Cc4ccccc4C3)NC(=O)[C@H]2CC(C)C)cn1 : 2130
CC[C@H](C)[C@@H]1C(=O)N[C@H](C2Cc3ccccc3C2)C(=O)N1[C@@H](C(=O)N(C)C)c1ccc(C)nc1C : 4720
CCC(CC)[C@@H]1C(=O)N[C@H](C2Cc3ccccc3C2)C(=O)N1[C@@H](C(=O)N(C)C)c1ccc(C)nc1 : 1810

**Query** Report AUC for CC[C@H](C)[C@@H]1C(=O)N[C@H](C2Cc3ccccc3C2)C(=O)N1[C@@H](C(=O)NC)c1ccc(C)nc1C
**Result** 1730

**Query** Report AUC for COc1ccc([C@H](C(=O)N(C)C)N2C(=O)[C@@H](C3Cc4ccccc4C3)NC(=O)[C@H]2CC(C)C)cn1
**Result** 2230

**Query** Report AUC for CCC(CC)[C@@H]1C(=O)N[C@H](C2Cc3ccccc3C2)C(=O)N1[C@@H](C(=O)NC)c1ccc(C)nc1C
**Result** 1240

**Query** Report AUC for CCC(CC)[C@@H]1C(=O)N[C@H](C2Cc3ccccc3C2)C(=O)N1[C@@H](C(=O)N1CCOCC1)c1ccc(C)nc1C
**Result** 2330

**Query** Report AUC for CC[C@H](C)[C@@H]1C(=O)N[C@H](C2Cc3ccccc3C2)C(=O)N1[C@@H](C(=O)N1CCOCC1)c1ccc(C)nc1
**Result** 1450
